Kindly return 1 if reported boiling point is no lower than 200 °C; return 0 if it is lower.

Consider the worked cases shown below.
{"columns": ["molecule", "discrete label"],
 "data": [
  ["COC(=O)CCCC(=O)OC", 1],
  ["O=C(O)C(F)(F)C(F)(F)C(F)(F)C(F)(F)C(F)(F)C(F)F", 0],
  ["c1ccc(N2CCNCC2)cc1", 1],
  ["CC(C)=CCC(C)C", 0],
  ["CCOC(CC)OCC", 0]
]}

### Prompt Dear colleague, could you confirm whether CCC(C#N)c1ccccc1 (configuration not stated) has boiling point at or above 200 °C?
### Response 1

### Prompt Dear colleague, could you confirm whether Sc1ccc(Br)cc1 has boiling point at or above 200 °C?
### Response 1

### Prompt Dear colleague, could you confirm whether c1csc(-c2cccs2)c1 has boiling point at or above 200 °C?
### Response 1

### Prompt Dear colleague, could you confirm whether CCC(C)C1CCCCC1 (configuration not stated) has boiling point at or above 200 °C?
### Response 0

### Prompt Dear colleague, could you confirm whether C1C2C3C2C2C1C32 (configuration not stated) has boiling point at or above 200 °C?
### Response 0

---

Dear colleague, classification is by melting point, with ranges listed here: small value: < 10 °C; mid value: ≥ 10 °C and < 100 °C; large value: ≥ 100 °C

Consider the worked cases shown below.
{"columns": ["compound", "discrete label"],
 "data": [
  ["CCOCC", "small value"],
  ["CC1Cc2ccccc2CC1C (centres undefined)", "small value"]
]}

### Prompt Dear colleague, I would appreciate it if you could identify the bin for CCC=NO and reply at your convenience.
### Response mid value

---

Dear colleague, classification is by boiling point, with ranges listed here: one = under 100 °C, two = from 100 °C up to 200 °C, three = 200 °C and over

Consider the worked cases shown below.
{"columns": ["smiles record", "discrete label"],
 "data": [
  ["CC(C)CCS", "two"],
  ["Cc1ccc(Oc2ccc(C)cc2)cc1", "three"],
  ["CC1=C(C)CCCC1", "two"],
  ["CN1CC1", "one"],
  ["CN1C(=O)CCC1=O", "three"]
]}

### Prompt Dear colleague, I would appreciate it if you could identify the bin for CC=C(C)CCl and reply at your convenience.
### Response two

### Prompt Dear colleague, I would appreciate it if you could identify the bin for Cc1ccccc1CC#N and reply at your convenience.
### Response three

### Prompt Dear colleague, I would appreciate it if you could identify the bin for CC(=O)Cc1ccco1 and reply at your convenience.
### Response two

### Prompt Dear colleague, I would appreciate it if you could identify the bin for CCCC(=O)OCCC(C)C and reply at your convenience.
### Response two

### Prompt Dear colleague, I would appreciate it if you could identify the bin for CCC=CCC(=O)OCC and reply at your convenience.
### Response two

---

Kindly supply the reported boiling point values for the records listed here.
Numbers only, in °C.

Use these answered entries as a reference point.
{"columns": ["compound", "unit of measurement", "boiling point"],
 "data": [
  ["O=C1OCc2ccccc21", "°C", 290],
  ["FC(F)C(F)Cl (configuration not stated)", "°C", 17],
  ["CCc1cccc(C)c1N(C(=O)CCl)[C@@H](C)COC", "°C", 282],
  ["CCc1nc(C)c[nH]1", "°C", 294],
  ["Cc1cc2ccccc2o1", "°C", 198],
  ["Oc1cccc2c1CCCC2", "°C", 266],
  ["CCNNCC", "°C", 85.5],
  ["CC(=O)CO", "°C", 146],
  ["C=CC(C)(CCC=C(C)C)OC(=O)C(C)C (configuration not stated)", "°C", 229],
  ["N#C/C=C/c1ccccc1", "°C", 264]
]}

Record boiling point for all entries; do not skip any.
1. CC(C)CCC(C)(C)C
2. CC1=C(C)C2CCC1C2
3. FC(F)(F)c1ccc(Br)cc1
4. O=Cc1cccc(C=O)c1

### Response
[124, 140, 160, 246]

---

Kindly supply the reported melting point values for the records listed here.
Answers are plain numbers, in °C.

Use these answered entries as a reference point.
{"columns": ["compound", "melting point / °C"],
 "data": [
  ["Cc1ccccc1C=Cc1ccccc1C", 83],
  ["CC1=CCC(C(=O)O)C1(C)C (configuration not stated)", 40.5],
  ["Cc1cc(C)c(N)cc1C", 68],
  ["COC(=O)[C@@H]1C2CCC(C[C@@H]1OC(=O)c1ccccc1)N2C (some centres not stated)", 98],
  ["CN1Cc2c(ccc3c2OCO3)[C@@H]2[C@H]1c1cc3c(cc1C[C@@H]2O)OCO3", 136]
]}

Record melting point for all entries; do not skip any.
1. Cc1nnc2n1-c1sc(Br)cc1C(c1ccccc1Cl)=NC2
2. Nc1ccccc1Oc1ccccc1

### Response
1. 213
2. 45.8

---

Kindly supply the reported log10 vapour pressure (mmHg) values for the records listed here.
Give bare numbers.

Use these answered entries as a reference point.
{"columns": ["compound", "value measured"],
 "data": [
  ["CCCC(C)O (stereo unspecified)", 0.786],
  ["c1ccc(Cc2ccccc2)cc1", -2.09],
  ["CCCC(O)C(CC)CO (stereo unspecified)", -2.52]
]}

Record log10 vapour pressure (mmHg) for all entries; do not skip any.
1. CCCC(=O)OCCC(C)C
2. CCCC(C)(C)C
3. ClCC(Cl)Cl

### Response
[-0.0223, 2.02, 1.36]

Record log10 vapour pressure (mmHg) for all entries; do not skip any.
1. CCC1OCC(COc2ccc(Oc3ccccc3)cc2)O1 (stereo unspecified)
2. C[Si](C)(F)c1ccccc1

### Response
-6.08
0.463

Record log10 vapour pressure (mmHg) for all entries; do not skip any.
1. Clc1cc2oc3cc(Cl)c(Cl)c(Cl)c3c2cc1Cl
2. Clc1ccccc1-c1cc(Cl)c(Cl)c(Cl)c1Cl
3. Clc1cccc(Cl)c1Cl
4. CCOC(=O)C(C)(C)C
5. C=C(C)C(C)C
6. Oc1c(F)c(F)c(F)c(F)c1F
7. CCc1ccc(C(=O)NN(C(=O)c2cc(C)cc(C)c2)C(C)(C)C)cc1

### Response
1: -8.76; 2: -4.16; 3: -0.678; 4: 1.25; 5: 2.4; 6: 0.464; 7: -7.65

### Prompt Reported log10 vapour pressure (mmHg), compound Cc1cccc(F)c1 : ____
### Response 1.34

---

Kindly supply the reported melting point values for the records listed here.
One number for each entry, in °C.

{"columns": ["molecule", "melting point / °C"],
 "data": [
  ["FC(F)(F)C(F)(F)C(Cl)Cl", -94],
  ["Cc1ccccc1S", 15],
  ["C#CC#C", -36.4],
  ["O=C(CC(c1ccccc1)c1ccccc1)c1ccccc1", 96],
  ["C=C(C)CN(CC)c1c([N+](=O)[O-])cc(C(F)(F)F)cc1[N+](=O)[O-]", 55.5],
  ["COC(=O)c1ccccn1", 18.7],
  ["O=C(O)COc1cccc2ccccc12", 196],
  ["COc1ccc(C(=O)Cl)cc1", 24.5],
  ["CN1CCN(C(=O)OC2C3=C(SCCS3)C(=O)N2c2ccc3ccc(Cl)nc3n2)CC1 (centres undefined)", 280],
  ["Cc1ccc(S(=O)(=O)O)cc1", 104]
]}

Record melting point for all entries; do not skip any.
1. CC(C)NCC(O)c1ccc([N+](=O)[O-])cc1 (centres undefined)
2. Cc1ccc(NC(O)=NC(C)(C)c2ccccc2)cc1
3. O=c1cc(CN2CCOCC2)c2cc(O)c(O)cc2o1

### Response
98
203
232

### Prompt Reported melting point, molecule CCCCCCCOc1ccc(O)cc1 : ____
### Response 61.5

---

Kindly supply the reported melting point values for the records listed here.
Give bare numbers, in °C.

{"columns": ["molecule", "unit of measurement", "melting point"],
 "data": [
  ["N#CCc1ccccc1", "°C", -23.8],
  ["CCC(C)C1(CC)C(=O)NC(=O)NC1=O (stereo not given)", "°C", 166],
  ["NC1CCCCCCC1", "°C", -48],
  ["c1ccc(C(=C(c2ccccc2)c2ccccc2)c2ccccc2)cc1", "°C", 225],
  ["Cc1ccc2cc3ccc4ccccc4c3cc2c1", "°C", 183]
]}

Record melting point for all entries; do not skip any.
1. CCOP(=O)(OCC)Oc1ccc([N+](=O)[O-])cc1
2. ClC(Cl)C(Cl)(Cl)C(Cl)(Cl)Cl
3. ClCc1ccc(Cl)cc1
4. O=C(O)c1nc(Cl)ccc1Cl
5. O=S1(=O)OCCO1
6. O=[N+]([O-])c1cc(C(F)(F)F)cc([N+](=O)[O-])c1Cl
7. C=COCC(C)C

### Response
300
29.4
31
151
99
57
-112

Record melting point for all entries; do not skip any.
1. c1ccc(CSc2ccccc2)cc1
2. CCCC(=O)OCCC(C)C

### Response
1. 43.5
2. -73.2

### Prompt Reported melting point, molecule Cc1c(Cl)c(Cl)cc(Cl)c1Cl : ____
### Response 93.5
